Could you please report measured TGI for the items listed next?
- System: NCI-H522 lung
- TEST SUMMARY: NCI tumour cell line growth inhibition, 48 h
One number for each entry, in µM.

Consider the reported TGI for these compounds:
[[record]]
compound = "CC(=O)[C@]1(O)Cc2c(O)c3c(c(O)c2C(OC2OC(C)C(O)C(O)C2F)C1)C(=O)c1ccccc1C3=O (stereo partly specified)"
endpoint_value = 2.28

[[record]]
compound = "Brc1ccc2c(-c3nc(-c4c[nH]c5ccc(Br)cc45)cs3)c[nH]c2c1"
endpoint_value = 4.85

[[record]]
compound = "CCCCC/C=C/C/C=C/CCCCCCCC1=NC(C)(C)CN1C(C)C"
endpoint_value = 3.17

[[record]]
compound = "COc1cccc(C2c3cc4c(cc3OC(N3CCCC3)C2C)OCO4)c1 (stereo unspecified)"
endpoint_value = 22.5


Now consider a different compound.
Prompt: Find the recorded TGI belonging to CCOC(=O)Cn1sc2ncc([N+](=O)[O-])cc2c1=O and report it.
Response: 39.5

----------
- System: OVCAR-8 ovarian
- TEST SUMMARY: NCI tumour cell line growth inhibition, 48 h
MEASURED METRIC: TGI (µM)
Answers are plain numbers, in µM.

[[record]]
compound = "COc1ccc2cc(C(=O)/C=C/c3cccc(OC)c3OC)ccc2c1"
endpoint_value = 33.6


Okay, here is my list. What is TGI for each of these?
1. CCOc1cc(NC(C)=O)ccc1C(=O)NN1C(=O)C(Oc2ccccc2)C1c1ccc(O)c(OC)c1 (stereo not given)
2. COc1ccc(OC)c2c1C(=O)C(Cl)=C(N1CCN(CCOCCO)CC1)C2=O
3. Clc1ccc2c(NCCCCN=Cc3ccccc3)ccnc2c1
4. CC(=O)OCC1OC(N2C(c3ccccc3)=CC(c3ccccc3)C(C#N)=C2S)C(OC(C)=O)C(OC(C)=O)C1OC(C)=O (stereo not given)

Response:
1: 96.8; 2: 30.9; 3: 32; 4: 24.2

----------
- Test system: HCC-2998 colon
- TEST SUMMARY: NCI tumour cell line growth inhibition, 48 h
MEASURED METRIC: TGI (µM)
Answers are plain numbers, in µM.

Batch: TGI for all items listed.
1. COc1cccc(N=Cc2c3ccccc3c(=O)n3c2oc2ccccc23)c1
2. C=C1CC[C@@]2(OC1)OC1C[C@H]3[C@@H]4CC=C5C[C@@H](O)CC(OC6OCC(OC(=O)[C@@H](O)[C@@H](C)CC)C(OC(C)=O)C6OC6OC(C)C(O)C(O)C6O)[C@]5(C)[C@H]4CC[C@]3(C)C1[C@@H]2C (some centres undefined)

Response:
44.9
2.96

----------
- Tested on: SK-MEL-2 melanoma
- TEST SUMMARY: NCI tumour cell line growth inhibition, 48 h
MEASURED METRIC: TGI

[[record]]
molecule = "N#CC1=C(N2CCCC2)NC(=O)CC1=O"
endpoint_value = "> 100 µM"

[[record]]
molecule = "C[N+](C)(N)CCC[N+](C)(C)N"
endpoint_value = "> 100 µM"

[[record]]
molecule = "CC(C(=O)N1c2ccccc2Sc2ccccc21)N1c2ccccc2Sc2ccccc21 (stereo unspecified)"
endpoint_value = "> 100 µM"


Your task in this section: give TGI for each listed record.
1. C=C1C(=O)O[C@H]2[C@H]1CC/C(COC(=O)/C=C\C(=O)NCc1ccc(Cn3c(=O)sn(-c4ccc(C#N)cc4)c3=O)cc1)=C\CC[C@@]1(C)O[C@@H]21
2. COc1ccc(OC)c(/C=C/NC=O)c1
3. N#C/C(C(=S)Nc1ccccc1)=C1/NN=C2c3ccccc3C(=O)NN21
4. CCOC(=O)[C@H]1Nc2ccc(C)cc2C2c3ccccc3CC21 (stereo partly specified)
5. COC(=O)C1(c2ccc(N(C)C)cc2OC)CCCN(C(=O)Oc2ccccc2[N+](=O)[O-])CCc2c1[nH]c1ccccc21 (stereo unspecified)

Response:
["2.03 µM", "> 100 µM", "53.8 µM", "> 100 µM", "> 100 µM"]

----------
Answer each item with its documented TGI.
- System: SF-539 CNS
- TEST SUMMARY: NCI tumour cell line growth inhibition, 48 h
Answers are plain numbers, in µM.

Example cases with answers are listed next.
[[record]]
compound = "CCN(CC)Cc1cc(Nc2ccnc3ccc4c(nnn4C)c23)ccc1O"
endpoint_value = 18.4

[[record]]
compound = "CC12CCCC(CC(=O)c3[nH]c4ccccc4c31)C2 (stereo not given)"
endpoint_value = 5.75


Next, consider the following compound.
Prompt: Given the compound COc1cc([C@@H]2c3cc4c(cc3C(O[C@@H]3O[C@@H]5CO[C@@H](c6cccs6)OC5[C@H](O)[C@H]3O)C3COC(=O)[C@@H]32)OCO4)cc(OC)c1O (stereo not given in full) , what is its reported TGI?
Response: 0.199

----------
- Test system: RPMI-8226 leukemia
- TEST SUMMARY: NCI tumour cell line growth inhibition, 48 h
So I've got a bunch of compounds here, and I need their TGI values.

Study these solved cases before continuing.
[[record]]
compound = "CN(C)CC(CN(C)C)c1ccccn1"
endpoint_value = "> 100 µM"

[[record]]
compound = "C[C@]12CC[C@@H]3c4ccc(O)cc4C[C@@H](CCCCCCCCCS(=O)CCCC(F)(F)C(F)(F)F)[C@H]3[C@@H]1CC[C@@H]2O (some centres not stated)"
endpoint_value = "> 100 µM"

[[record]]
compound = "CCOC(=O)/C(O)=C(/C=NC(=S)c1ccncc1)C(=O)OCC"
endpoint_value = "> 100 µM"

[[record]]
compound = "CC(C)=CC(=O)N1CCN(C(=O)C=C(C)C)CC1"
endpoint_value = "> 100 µM"

[[record]]
compound = "Cc1ccc(C(=O)/C=C/c2ccccc2O)c(C)c1"
endpoint_value = "> 100 µM"

[[record]]
compound = "O=c1[nH]nc(-c2cccc(Br)c2)[nH]1"
endpoint_value = "> 100 µM"

[[record]]
compound = "COC(=O)C1=C(c2ccc3c(c2)OCO3)O[C@H](c2ccc3c(c2)OCO3)[C@H]1COC(C)=O"
endpoint_value = "> 100 µM"

[[record]]
compound = "Cc1cc(C2CCCCC2)n(O)c(=O)c1"
endpoint_value = "46.8 µM"

[[record]]
compound = "N#C/C(C(=S)Nc1ccccc1)=C1/NN=C2c3ccccc3C(=O)NN21"
endpoint_value = "> 100 µM"

[[record]]
compound = "Cc1cccc(N2C(=O)C(Cl)=C(Cl)C2=O)c1"
endpoint_value = "> 78.9 µM"


Provide reported TGI for each item, in the same order as listed.
1. COc1cccc(C2c3cc4c(cc3OC(N3CCCC3)C2C)OCO4)c1 (configuration not stated)
2. Nc1nccc(-c2c(-c3ccc(F)cc3)ncn2CCCN2CCOCC2)n1
3. CCCN=C(NC(=O)c1ccc(Cl)cc1)SC
4. CSc1nc(NC2OC(COC(C)=O)C(OC(C)=O)C(OC(C)=O)C2OC(C)=O)c2c(OC(C)=O)c(C)c(=O)oc2n1 (configuration not stated)

Response:
24.3 µM
> 25 µM
> 100 µM
> 100 µM

----------
For each entry below, report its TGI value.
- Test system: SK-OV-3 ovarian
- TEST SUMMARY: NCI tumour cell line growth inhibition, 48 h
Numbers only, in µM.

Record TGI per entry; entries follow.
1. O=C1NC(Nc2cccc(Cl)c2)=N/C1=C\c1ccc(Cl)c(Cl)c1
2. CN(CCCNc1ccc2ncn3c4ccccc4c(=O)c1c23)CCCN1C(=O)c2cccc3cc([N+](=O)[O-])cc(c23)C1=O

Response:
27.5
2.69

I would be grateful if you could provide TGI for each of the following entries.
1. CC(=O)[O][Hg][c]1c(C)c(C)c(C)c(C)c1C
2. COc1ccc(OC)c2c1C(=O)C(Cl)=C(N1CCN(CCOCCO)CC1)C2=O
3. C[C@]12CC[C@@H]3c4ccc(O)cc4CC[C@H]3[C@@H]1CC[C@@H]2NS(=O)(=O)c1ccc(C(F)(F)F)cc1

Response:
6.04
34
6.21

----------
Give TGI for every item shown.
- Test system: HCC-2998 colon
- TEST SUMMARY: NCI tumour cell line growth inhibition, 48 h

[[record]]
compound = "O=C(CC(=O)N1N=C(c2ccccc2)C(N=Nc2ccc(Cl)cc2)C1=O)Nc1ccccc1Cl (stereo not given)"
measured_metric = "TGI"
endpoint_value = "> 100 µM"


For each of the compounds below, note its TGI.
1. COc1ccc(C(=O)O)c(Cc2cccc3ccccc23)c1
2. CN1C(NC(=O)c2ccc(Cl)nc2)=NS(=O)(=O)c2cc(Cl)ccc21

Response:
1: > 100 µM; 2: > 100 µM

For every item in the list below, what is its measured TGI?
1. CCc1cccc(C)c1NC(C)=O
2. O=C(NC1CCCCCC1)C1C(=O)N(C2CCCCCC2)C(=O)/C1=N\O (stereo not given)
3. O=C(CC(=O)N(C(=O)c1ccccc1)c1ccc(Cl)cc1)N/N=C\c1cc(N=Nc2ccccc2Cl)ccc1O
4. Brc1ccc2c(-c3nc(-c4c[nH]c5ccc(Br)cc45)cs3)c[nH]c2c1
5. CN(C)/N=C(\CCN1CCCC1)CC(c1ccccc1)c1c(O)c2ccccc2oc1=O (stereo not given)

Response:
1. > 100 µM
2. 40.2 µM
3. > 100 µM
4. 5.92 µM
5. > 100 µM

I'm hoping you can list TGI for every compound here, please.
1. COC(=O)C(=O)C(C(=O)C=C(C)C)C(=O)C(=O)Nc1ccc(Cl)cc1C (stereo not given)
2. C[C@]12CC[C@@H]3c4ccc(O)cc4C[C@@H](CCCCCCCCCS(=O)CCCC(F)(F)C(F)(F)F)[C@H]3[C@@H]1CC[C@@H]2O (stereo not given in full)

Response:
> 100 µM
> 100 µM
